target: T1, naked peptide TDFYCEKNNV (human)
T1 peptide: TDFYCEKNNV
assayText: ELISA naked peptide; scFv 1 ug/mL; repII
Method: The peptides were synthesized naked or with a N-terminal Biotin modification with a purity of >98%. All four scFvs were verified by ELISA that can be detected with anti-His antibodies. ELISA was performed for scFv-peptide binding validation. Briefly, naked peptides were coated (50 μg/mL) in 0.58M carbonate-bicarbonate buffer pH9.5, 100 μL/well, 4° C. […]
So I've got a bunch of binders here, and I need their OD450 values.
Express it in OD; write the number only.

Q: Item under review: CCR9_HUM2 scFv (humanized anti-CCR9 scFv, SEQ ID NO: 17 with C-terminal 6xHis tag) (scFv) scFv: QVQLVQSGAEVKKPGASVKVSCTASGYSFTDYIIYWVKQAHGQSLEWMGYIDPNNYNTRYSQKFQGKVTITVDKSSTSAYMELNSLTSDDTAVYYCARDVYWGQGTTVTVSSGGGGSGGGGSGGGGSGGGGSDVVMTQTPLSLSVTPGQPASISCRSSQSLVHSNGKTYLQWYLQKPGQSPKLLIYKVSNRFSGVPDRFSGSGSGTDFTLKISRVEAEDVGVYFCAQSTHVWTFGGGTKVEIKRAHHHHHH . Reported OD450?
Ans: 0.03

Q: Queued: Comparative antibody 1 (Comp-1) scFv, SEQ ID NO: 10 from WO2023/037125 A1, His-tagged (scFv) scFv: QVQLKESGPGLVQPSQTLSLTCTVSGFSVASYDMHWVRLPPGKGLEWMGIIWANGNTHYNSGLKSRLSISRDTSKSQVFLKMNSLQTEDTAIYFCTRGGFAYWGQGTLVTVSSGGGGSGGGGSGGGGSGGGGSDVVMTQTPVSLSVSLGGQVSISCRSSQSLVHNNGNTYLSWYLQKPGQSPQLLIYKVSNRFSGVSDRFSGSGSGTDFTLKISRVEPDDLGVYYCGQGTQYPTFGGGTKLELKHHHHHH
Ans: 0.03

Q: Queued: Comparative antibody 3 (Comp-3) scFv, SR_92R (Somovilla-Crespo et al. 2018), His-tagged (scFv) scFv: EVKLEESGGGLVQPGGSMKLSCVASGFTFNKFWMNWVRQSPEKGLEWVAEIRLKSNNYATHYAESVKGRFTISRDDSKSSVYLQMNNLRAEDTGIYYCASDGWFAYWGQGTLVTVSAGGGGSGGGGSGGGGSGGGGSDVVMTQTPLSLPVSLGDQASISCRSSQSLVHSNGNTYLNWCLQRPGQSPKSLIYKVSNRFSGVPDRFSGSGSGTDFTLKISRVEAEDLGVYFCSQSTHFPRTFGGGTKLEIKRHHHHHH
Ans: 0.04

Q: Queued: Comparative antibody 2 (Comp-2) scFv, 243LO326 (VH SEQ ID NO: 51 and VL SEQ ID NO: 52 of WO 2022/195028 A2), His-tagged (scFv) scFv: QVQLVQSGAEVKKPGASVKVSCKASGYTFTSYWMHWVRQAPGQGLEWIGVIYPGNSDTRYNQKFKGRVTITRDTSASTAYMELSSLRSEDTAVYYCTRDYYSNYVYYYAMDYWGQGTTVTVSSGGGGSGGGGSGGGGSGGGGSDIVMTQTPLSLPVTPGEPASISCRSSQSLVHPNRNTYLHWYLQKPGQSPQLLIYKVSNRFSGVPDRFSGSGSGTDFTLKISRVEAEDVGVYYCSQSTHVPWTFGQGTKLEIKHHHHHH
Ans: 0.03
